The origin of these recorded values is patent US20070020327A1.

Exercise: for every item that follows, state its recorded binding affinity ratio (ratio to standard peptide).
target: HLA-A*0201 (human); experiment: competitive inhibition of 125I-labelled standard peptide binding to purified HLA, gel filtration
One number for each entry.

Solved entries (count: 5):
{"columns": ["binder", "value-measured"],
 "data": [
  ["KLRELSELSL (modifications not checked) [… (PAP, position 234)]", 0.004],
  ["KIVIARYGKV (modifications not checked) [… (PSM, position 199)]", 0.0002],
  ["IVIARYGKV (modifications not checked) [… (PSM, position 200)]", 0.0001],
  ["KLIMYSAHDT (modifications not checked) [… (PAP, position 282)]", 0.0002],
  ["KINCSGKIV (modifications not checked)", 0.0002]
]}

Please report binding affinity ratio (ratio to standard peptide) for every entry that follows.
1. KAWGEVKRQI (modifications not checked) [… (PSM, position 723)]
2. KAENIKKFL (modifications not checked) [… (PSM, position 66)]
3. KTYSVSFDSL (modifications not checked) [… (PSM, position 623)]
4. KTHPNYISII (modifications not checked)
5. KINCSGKIVI (modifications not checked)
6. ITDVVKVL (modifications not checked) [ITDVVKVL (Kallikrein, position 132)]
7. KTHPNYISI (modifications not checked)
8. ITDVVKVLGL (modifications not checked) [… (Kallikrein, position 132)]

## Result
1: 0.0001; 2: 0.0002; 3: 0.0002; 4: 0.0001; 5: 0.0001; 6: 0.0001; 7: 0.0002; 8: 0.0003

Please report binding affinity ratio (ratio to standard peptide) for every entry that follows.
1. KLLEKMGGSA (modifications not checked) [… (PSM, position 304)]
2. ITSWGSEPCA (modifications not checked) [… (PSA, position 222)]

## Result
1. 0.0003
2. 0.0003
